Reference source for all entries: ChEMBL document CHEMBL4138105

For each record, write down the corresponding MIC.
test system: Escherichia coli; assay: Antibacterial activity against Escherichia coli KCTC 1682 in presence of 150 mM NaCl after 24 hrs; assay type: functional; settings: KCTC 1682, 24 h
# unit: µM | format: bare number

Query: Quick one: give measured MIC for CC[C@H](C)[C@H](NC(=O)[C@H](CCCNC(=N)N)NC(=O)[C@@H](N)CCCCN)C(=O)N[C@H](C(=O)N[C@@H](CCCCN)C(=O)N[C@H](CC(C)C)C(=O)N[C@H](C(=O)N[C@@H](CC(C)C)C(=O)N[C@@H](CCCCN)C(=O)N[C@@H](Cc1c[nH]c2ccccc12)C(=O)N[C@@H](CC(C)C)C(=O)N[C@@H](CCCNC(=N)N)C(N)=O)[C@@H](C)CC)C(C)C
Result: 4

Query: State its MIC for this compound: CC[C@H](C)[C@H](NC(=O)[C@H](CC(C)C)NC(=O)[C@H](CCCCN)NC(=O)[C@@H](NC(=O)[C@@H](NC(=O)[C@H](CCCNC(=N)N)NC(=O)[C@@H](N)CCCCN)[C@@H](C)CC)C(C)C)C(=O)N[C@@H](CC(C)C)C(=O)N[C@@H](CCCCN)C(=O)N[C@@H](Cc1c[nH]c2ccccc12)C(=O)N[C@@H](CC(C)C)C(=O)N[C@@H](CCCNC(=N)N)C(N)=O
Result: 8

Query: Return MIC for the following compound: CC[C@H](C)[C@H](NC(=O)[C@H](CC(C)C)NC(=O)[C@@H](CCCCN)NC(=O)[C@@H](NC(=O)[C@@H](NC(=O)[C@H](CCCNC(=N)N)NC(=O)[C@@H](N)CCCCN)[C@@H](C)CC)C(C)C)C(=O)N[C@@H](CC(C)C)C(=O)N[C@@H](CCCCN)C(=O)N[C@@H](Cc1c[nH]c2ccccc12)C(=O)N[C@@H](CC(C)C)C(=O)N[C@@H](CCCNC(=N)N)C(N)=O
Result: 4
